# T½ values compiled below
Biological target: T1, Soluble heterodimeric CD3 protein (hCD3-epsilon/hCD3-delta) with either a human Fc tag (hFcΔAdp/hFc) or a … (human, UniProt P07766 23-126; P04234 22-105)
T1 construct: also called hCD3ε/δ; not shown: Fc tag: human (hFcΔAdp/hFc)
T1 sequence (P07766 23-126 limits assumed, stated change not applied, chain 1 of 2): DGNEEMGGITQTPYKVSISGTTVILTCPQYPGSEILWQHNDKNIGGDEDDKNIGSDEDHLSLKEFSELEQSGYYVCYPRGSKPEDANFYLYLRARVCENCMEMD
T1 sequence (P04234 22-105 limits assumed, stated change not applied, chain 2 of 2): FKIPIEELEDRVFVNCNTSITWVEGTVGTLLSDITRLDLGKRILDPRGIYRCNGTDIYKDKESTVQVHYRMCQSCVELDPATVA
Experiment: SPR Biacore 25C antigen-capture
Give your result in min as a bare value.

[
  {
    "binder": "H2M2775N (antibody, mouse IgG2, V domains shown, H2M: mouse IgG2 Fc, human variable regions; divalent) VH: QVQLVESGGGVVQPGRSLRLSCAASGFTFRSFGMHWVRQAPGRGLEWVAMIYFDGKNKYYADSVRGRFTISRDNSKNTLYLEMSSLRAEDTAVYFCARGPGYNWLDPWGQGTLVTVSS VL: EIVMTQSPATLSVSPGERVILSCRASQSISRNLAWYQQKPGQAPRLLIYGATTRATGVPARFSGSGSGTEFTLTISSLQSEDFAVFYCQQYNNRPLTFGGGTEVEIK",
    "unit.text": "min",
    "T½": 53
  }
]

// switching to the query binder
Can you share its T½? I mean this binder: H2M2862N (antibody, mouse IgG2, V domains shown, H2M: mouse IgG2 Fc, human variable regions; divalent) VH: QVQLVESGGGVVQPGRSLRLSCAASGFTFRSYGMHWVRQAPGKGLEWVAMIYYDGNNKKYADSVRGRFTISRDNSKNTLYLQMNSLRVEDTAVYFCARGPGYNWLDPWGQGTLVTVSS VL: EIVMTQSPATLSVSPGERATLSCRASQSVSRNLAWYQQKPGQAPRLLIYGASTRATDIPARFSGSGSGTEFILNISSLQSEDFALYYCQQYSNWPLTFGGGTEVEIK
36
